# measuredOn: T1, recombinant human NKp30 extracellular domain, his-tagged (human, UniProt O14931 19-135)
# T1 construct: BLI used human NKp30 bought from Abcam (his-tagged ECD); also called rh NKp30 ECD; human NKp30 (Abcam); not shown: his tag
# T1 sequence: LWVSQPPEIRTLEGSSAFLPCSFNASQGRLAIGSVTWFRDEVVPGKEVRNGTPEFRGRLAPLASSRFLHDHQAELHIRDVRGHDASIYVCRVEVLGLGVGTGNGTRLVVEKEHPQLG
# testDetails: BLI as in Example 1, maximum binding capacity
Documented Emax (nm) across a set of binders
Note: unit nm is implicit; provide only the numeric part.

Solved cases (3 shown):
[[record]]
binder = "VHH1.1 (humanized) (VHH, expressed and measured by BLI 'as described in Experiment 1' (there: bispecific SEEDbody on anti-human Fc sensors)) VHH: EVQLVESGGGVVQPGGSLRLSCATSGFTLDDYTIGWVRQAPGKEHEGVSCFSPSDGTTYYADSVKGRFTFSRDNAKNTVYLQMNSLRAEDTAVYYCAASFADGSSWCYDYWGQGTLVTVSS"
unitdescriptor = "nm"
endpointresult = 0.13

[[record]]
binder = "VHH1.2 (humanized) (VHH, expressed and measured by BLI 'as described in Experiment 1' (there: bispecific SEEDbody on anti-human Fc sensors)) VHH: EVQLVESGGGVVQPGGSLRLSCATSGFTLDDYTIGWVRQAPGKEHEGVSCFSPSDGTTYYADSVKGRFTFSRDNAKNTLYLQMNSLRAEDTAVYYCAASFADGSSWCYDYWGQGTLVTVSS"
unitdescriptor = "nm"
endpointresult = 0.12

[[record]]
binder = "VHH1.7 (humanized) (VHH, expressed and measured by BLI 'as described in Experiment 1' (there: bispecific SEEDbody on anti-human Fc sensors)) VHH: EVQLVESGGGVVQPGGSLRLSCAASGFTLDDYTIGWVRQAPGKGLEGVSCFSPSDGTTYYADSVKGRFTFSRDNAKNTLYLQMNSLRAEDTAVYYCAASFADGSSWCYDYWGQGTLVTVSS"
unitdescriptor = "nm"
endpointresult = 0.09


Kindly consider the entry below.
Given item VHH1.4 (humanized) (VHH, expressed and measured by BLI 'as described in Experiment 1' (there: bispecific SEEDbody on anti-human Fc sensors)) VHH: EVQLVESGGGVVQPGGSLRLSCATSGFTLDDYTIGWVRQAPGKGLEGVSCFSPSDGTTYYADSVKGRFTFSRDNAKNTVYLQMNSLRAEDTAVYYCAASFADGSSWCYDYWGQGTLVTVSS , the value recorded as its Emax (nm) is 0.12
